Measured inhibition at 10 µM by item
Target: UniProt:P21918
Sequence (P21918 whole entry): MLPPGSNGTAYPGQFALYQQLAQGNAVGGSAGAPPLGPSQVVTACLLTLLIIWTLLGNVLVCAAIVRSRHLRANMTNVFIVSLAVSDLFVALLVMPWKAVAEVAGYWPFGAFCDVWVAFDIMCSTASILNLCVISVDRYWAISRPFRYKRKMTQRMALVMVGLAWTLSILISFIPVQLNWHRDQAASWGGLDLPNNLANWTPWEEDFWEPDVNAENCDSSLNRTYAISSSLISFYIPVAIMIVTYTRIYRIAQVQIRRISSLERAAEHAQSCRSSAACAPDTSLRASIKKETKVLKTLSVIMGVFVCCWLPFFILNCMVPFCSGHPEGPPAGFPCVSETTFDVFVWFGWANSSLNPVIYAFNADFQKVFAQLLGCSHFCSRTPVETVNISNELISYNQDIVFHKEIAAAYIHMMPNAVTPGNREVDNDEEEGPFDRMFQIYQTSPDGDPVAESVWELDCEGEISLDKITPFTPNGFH
Assay: PDSP binding screen
Conditions: read-out: Ki (nM) or % inhibition at 10 µM: D5
Reported Property: inhibition at 10 µM

>>> df
                                   molecule  test_result
0  CCN(CCCNC(=O)c1cc2ccccc2[nH]1)CCNC(=O)c1cc(Br)cc(OC)c1OC [21d]        < 50%
1  CCCN(CCCNC(=O)c1ccc(-c2cccs2)cc1)CCNC(=O)c1cc(Br)cc(OC)c1OC [20a]        < 50%
2  CCN(CCCNC(=O)c1ccc2ccccc2c1)CCNC(=O)c1cc(Br)cc(OC)c1OC [21a]        < 50%
3  CCN(CCCNC(=O)c1ccsc1)CCNC(=O)c1cc(Br)cc(OC)c1OC [21i]        < 50%
4  CCN(CCCNC(=O)c1cc2ccccc2n1C)CCNC(=O)c1cc(Br)cc(OC)c1OC [21j]        < 50%
5  CCN(CCCNC(=O)c1cn2ccccc2n1)CCNC(=O)c1cc(Br)cc(OC)c1OC [21e]        < 50%

###

Biological target: UniProt P25100
Sequence (P25100 1-572): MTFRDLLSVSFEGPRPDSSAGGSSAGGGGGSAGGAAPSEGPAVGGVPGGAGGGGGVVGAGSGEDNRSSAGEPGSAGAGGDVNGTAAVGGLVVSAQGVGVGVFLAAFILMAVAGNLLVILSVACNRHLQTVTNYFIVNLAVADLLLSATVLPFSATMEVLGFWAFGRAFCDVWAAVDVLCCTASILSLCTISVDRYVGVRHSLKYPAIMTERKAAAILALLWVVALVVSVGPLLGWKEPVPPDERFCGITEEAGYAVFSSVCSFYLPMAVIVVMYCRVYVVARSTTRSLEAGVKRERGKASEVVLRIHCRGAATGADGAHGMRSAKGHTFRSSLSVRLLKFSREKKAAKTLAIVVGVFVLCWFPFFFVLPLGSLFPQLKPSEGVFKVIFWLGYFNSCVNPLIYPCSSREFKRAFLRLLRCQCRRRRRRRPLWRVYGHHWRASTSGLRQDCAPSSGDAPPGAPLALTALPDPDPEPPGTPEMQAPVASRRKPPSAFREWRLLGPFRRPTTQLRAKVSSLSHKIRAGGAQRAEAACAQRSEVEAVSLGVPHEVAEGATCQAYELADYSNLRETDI
Reported Property: Ki

>>> df
                                   molecule  test_result
0  CCCN(CCCNC(=O)c1ccc(-c2cccs2)cc1)CCNC(=O)c1cc(Br)cc(OC)c1OC [20a]      2420 nM
1  CCN(CCCNC(=O)c1ccc(-c2cccs2)cc1)CCNC(=O)c1cc(Br)cc(OC)c1OC      2560 nM
2  CCN(CCCNC(=O)c1ccc(-c2ccsc2)cc1)CCNC(=O)c1cc(Br)cc(OC)c1OC [21g]      1410 nM
3  CCN(CCCNC(=O)c1cc2ccccc2[nH]1)CCNC(=O)c1cc(Br)cc(OC)c1OC [21d]      7310 nM

###

pKi: −log10 of the molar value.
List of pKi tested on Dopamine D3 (Homo sapiens, UniProt P35462).
Sequence (P35462 whole entry): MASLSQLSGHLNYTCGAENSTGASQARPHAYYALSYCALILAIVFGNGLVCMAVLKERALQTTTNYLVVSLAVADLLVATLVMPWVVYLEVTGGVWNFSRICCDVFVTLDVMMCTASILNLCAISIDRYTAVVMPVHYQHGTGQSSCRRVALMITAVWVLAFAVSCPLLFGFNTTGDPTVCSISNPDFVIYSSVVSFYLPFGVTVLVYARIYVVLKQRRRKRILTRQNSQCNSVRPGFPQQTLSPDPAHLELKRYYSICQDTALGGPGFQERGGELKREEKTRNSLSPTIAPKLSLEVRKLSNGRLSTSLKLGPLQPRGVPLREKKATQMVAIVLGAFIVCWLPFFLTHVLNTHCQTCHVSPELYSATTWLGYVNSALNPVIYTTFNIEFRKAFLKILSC
Reported Property: pKi

>>> df
                                   molecule  reported_property  test_result
0  CCN(CCCNC(=O)c1cn2ccccc2n1)CCNC(=O)c1cc(Br)cc(OC)c1OC [21e]                pKi         9.34
1  CCCN(CCCNC(=O)c1ccc(-c2cccs2)cc1)CCNC(=O)c1cc(Br)cc(OC)c1OC [20a]                pKi         8.88
2  CCN(CCCNC(=O)c1cc2ccccc2n1C)CCNC(=O)c1cc(Br)cc(OC)c1OC [21j]                pKi         9.47
3  CCN(CCCNC(=O)c1ccc2ccccc2c1)CCNC(=O)c1cc(Br)cc(OC)c1OC [21a]                pKi         9.72
4  CCN(CCCNC(=O)c1ccc(-c2ccsc2)cc1)CCNC(=O)c1cc(Br)cc(OC)c1OC [21g]                pKi         9.21
5  CCN(CCCNC(=O)c1ccc(-c2ccncc2)cc1)CCNC(=O)c1cc(Br)cc(OC)c1OC [21c]                pKi         9.44
6  CCN(CCCNC(=O)c1ccc(-c2cccs2)cc1)CCNC(=O)c1cc(Br)cc(OC)c1OC                pKi         9.08
7  CCN(CCCNC(=O)c1ccsc1)CCNC(=O)c1cc(Br)cc(OC)c1OC [21i]                pKi         9.55
8  CCN(CCCNC(=O)c1cc2ccccc2[nH]1)CCNC(=O)c1cc(Br)cc(OC)c1OC [21d]                pKi         9.60
